Assay: self-splicing fitness, log relative to wild type (ln ratio); higher = more splicing; Tetrahymena group I intron in knt gene, E. coli kanamycin selection, DiMSum; sequences stand for … in CUCUCU…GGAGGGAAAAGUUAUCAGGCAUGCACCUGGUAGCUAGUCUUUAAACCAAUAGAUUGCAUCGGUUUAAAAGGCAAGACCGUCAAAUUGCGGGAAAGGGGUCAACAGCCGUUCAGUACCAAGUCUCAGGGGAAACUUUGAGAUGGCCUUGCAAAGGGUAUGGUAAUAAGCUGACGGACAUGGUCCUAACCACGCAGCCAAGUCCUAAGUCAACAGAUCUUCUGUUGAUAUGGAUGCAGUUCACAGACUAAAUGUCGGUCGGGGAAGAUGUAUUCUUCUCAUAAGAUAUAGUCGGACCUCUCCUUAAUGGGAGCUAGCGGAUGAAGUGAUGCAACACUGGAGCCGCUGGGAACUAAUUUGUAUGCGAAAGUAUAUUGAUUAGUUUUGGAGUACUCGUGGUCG;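 also: selection with 25 µg/mL kanamycin versus none on LB agar overnight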
Conditions: 37 °C
Record satisfied whenever self-splicing fitness (ln) is at -2 or higher; record not satisfied when lower.

Study these solved cases before continuing.
CUAGAGCAAUAUUACGAUUG ... satisfied
ACACAGCAAUAUUACGUUGU ... not satisfied
GCGUAGCAAUAUUACGGCCU ... satisfied
UAAAAGCAAUAUUACGAUAC ... not satisfied
GACUAGCAAUAUUACGGGGU ... not satisfied
GAUGAGCAAUAUUACGGUCU ... not satisfied

In plain terms: is recorded self-splicing fitness (ln) at least -2 for AUUCAGCAAUAUUACGGAGU ? not satisfied

In plain terms: is recorded self-splicing fitness (ln) at least -2 for UGCCAGCAAUAUUACGGAGG ? satisfied

In plain terms: is recorded self-splicing fitness (ln) at least -2 for GUCAAGCAAUAUUACGCUCG ? satisfied

* * *

Test: self-splicing fitness, log relative to wild type (ln ratio); higher = more splicing; Tetrahymena group I intron in knt gene, E. coli kanamycin selection, DiMSum; sequences stand for … in CUCUCU…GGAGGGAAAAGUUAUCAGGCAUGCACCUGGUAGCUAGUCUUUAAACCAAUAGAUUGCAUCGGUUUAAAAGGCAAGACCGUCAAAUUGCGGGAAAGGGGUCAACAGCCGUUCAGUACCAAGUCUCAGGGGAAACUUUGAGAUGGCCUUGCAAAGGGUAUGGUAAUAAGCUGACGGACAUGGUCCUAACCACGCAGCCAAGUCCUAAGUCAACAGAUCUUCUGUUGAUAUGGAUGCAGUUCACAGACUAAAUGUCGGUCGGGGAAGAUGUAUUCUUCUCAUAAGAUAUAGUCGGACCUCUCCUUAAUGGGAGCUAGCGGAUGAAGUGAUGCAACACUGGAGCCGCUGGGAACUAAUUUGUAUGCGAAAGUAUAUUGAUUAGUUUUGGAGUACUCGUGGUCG
Details: 30 °C
For each record, write down the corresponding self-splicing fitness (ln).
One number for each entry.

Known results for sequences:
CGUUAGCAAUAUUACGAGUG ... -1.18
UUGCAGCAAUAUUACGUCGA ... -0.56

Lookup result for GAUUAGCAAUAUUACGCUUG ; measured self-splicing fitness (ln): -0.829

* * *

Experiment: self-splicing fitness, log relative to wild type (ln ratio); higher = more splicing; Tetrahymena group I intron in knt gene, E. coli kanamycin selection, DiMSum; sequences stand for … in CUCUCU…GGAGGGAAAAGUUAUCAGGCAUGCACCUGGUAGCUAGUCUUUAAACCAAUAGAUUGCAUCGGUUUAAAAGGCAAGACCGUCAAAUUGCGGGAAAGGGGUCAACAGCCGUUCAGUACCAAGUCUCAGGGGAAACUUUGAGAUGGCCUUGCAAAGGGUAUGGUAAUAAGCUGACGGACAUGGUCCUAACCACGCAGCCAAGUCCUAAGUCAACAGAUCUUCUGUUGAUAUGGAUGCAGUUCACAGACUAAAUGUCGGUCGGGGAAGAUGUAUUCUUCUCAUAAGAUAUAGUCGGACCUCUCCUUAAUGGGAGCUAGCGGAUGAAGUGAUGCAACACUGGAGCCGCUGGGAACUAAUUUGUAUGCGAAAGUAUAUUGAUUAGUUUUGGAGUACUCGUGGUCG
Settings: 37 °C
Record Satisfied whenever self-splicing fitness (ln) is at -2 or higher; record Not satisfied when lower.

Study these solved cases before continuing.
GAAUAGCAAUAUUACGCAUU ... Satisfied
AGGCAGCAAUAUUACGGCCA ... Satisfied
CACUAGCAAUAUUACGAUAC ... Not satisfied

In plain terms: is recorded self-splicing fitness (ln) at least -2 for GUAAAGCAAUAUUACGGUCC ? Satisfied

In plain terms: is recorded self-splicing fitness (ln) at least -2 for ACCCAGCAAUAUUACGCCAC ? Satisfied

In plain terms: is recorded self-splicing fitness (ln) at least -2 for UGUGAGCAAUAUUACGUACG ? Satisfied

In plain terms: is recorded self-splicing fitness (ln) at least -2 for UGAAAGCAAUAUUACGUGGG ? Not satisfied

In plain terms: is recorded self-splicing fitness (ln) at least -2 for UAACAGCAAUAUUACGGGAA ? Satisfied

In plain terms: is recorded self-splicing fitness (ln) at least -2 for AAUGAGCAAUAUUACGCUCU ? Not satisfied

In plain terms: is recorded self-splicing fitness (ln) at least -2 for UAAAAGCAAUAUUACGGGGG ? Not satisfied

In plain terms: is recorded self-splicing fitness (ln) at least -2 for GUAGAGCAAUAUUACGGAUC ? Satisfied

In plain terms: is recorded self-splicing fitness (ln) at least -2 for GUACAGCAAUAUUACGUCGU ? Satisfied

In plain terms: is recorded self-splicing fitness (ln) at least -2 for UAAAAGCAAUAUUACGUAGC ? Not satisfied

In plain terms: is recorded self-splicing fitness (ln) at least -2 for UGGAAGCAAUAUUACGAGAA ? Satisfied

In plain terms: is recorded self-splicing fitness (ln) at least -2 for ACAAAGCAAUAUUACGCCGG ? Satisfied

In plain terms: is recorded self-splicing fitness (ln) at least -2 for UUUAAGCAAUAUUACGCGCU ? Satisfied

Hey, just so you know, these numbers are from the supplement of paper PMC7877785.
